experimental.target: IL-13 (Homo sapiens)
Sequence (P35225 25-146, species assumed): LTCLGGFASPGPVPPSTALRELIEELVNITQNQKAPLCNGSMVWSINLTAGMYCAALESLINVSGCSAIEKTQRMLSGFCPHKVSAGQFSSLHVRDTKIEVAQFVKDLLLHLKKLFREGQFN
assay.procedure: Immunoassay binding test, IL-13
stated.conditions: 100 μM
quantity.name: BINDING IL13 % Neutra at 100 μM (%)

[[record]]
compound = "CN(CCCCN(Cc1ccncc1)Cc1cn(S(=O)(=O)c2ccccc2)c2ccccc12)C1CCCCC1"
measured_result = 94.2

[[record]]
compound = "CN(CCCN(Cc1ccncc1)Cc1cn(S(=O)(=O)c2ccccc2)c2ccccc12)C1CCCCC1"
measured_result = 90.2

[[record]]
compound = "O=S(=O)(c1ccccc1)n1cc(CN(CCCCNC2CCC2)Cc2cccnc2F)c2ccccc21"
measured_result = 79.7

[[record]]
compound = "NCCCCN(Cc1cccnc1F)Cc1cn(S(=O)(=O)c2ccccc2)c2ccccc12"
measured_result = 55.4

[[record]]
compound = "NS(=O)(=O)NCCCCN(Cc1cccnc1F)Cc1cn(S(=O)(=O)c2ccccc2)c2ccccc12"
measured_result = 0


1: CCCN(CCOCCN(Cc1cccnc1F)Cc1cn(S(=O)(=O)c2ccccc2)c2ccccc12)C1CCCC1 [Compound 108]
2: O=S(=O)(c1ccccc1)n1cc(CN(CCCCCNC2CCCCC2)Cc2cccnc2)c2ccccc21
3: CN(CCCCN(Cc1cccnc1F)Cc1cn(C)c2ccccc12)C1CCCCC1
Endpoint returns the given compounds ordered by ascending BINDING IL13 % Neutra at 100 μM. Reply: labels, ordered per the request.
3, 1, 2

* * *

experimental.target: IL-4 (Homo sapiens, UniProt P05112)
Sequence (P05112 25-153, species assumed): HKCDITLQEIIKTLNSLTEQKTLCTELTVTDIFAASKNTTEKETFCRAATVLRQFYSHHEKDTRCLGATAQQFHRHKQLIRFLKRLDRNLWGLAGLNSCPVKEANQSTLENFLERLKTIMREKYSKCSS
assay.procedure: Immunoassay binding test, IL-4
stated.conditions: 100 μM
quantity.name: BINDING IL4 % Neutra at 100 μM (%)

Example results:
[[record]]
compound = "CN(CCCCCN(Cc1cccnc1)Cc1cn(-c2cccc(C(F)(F)F)c2)c2ccccc12)C1CCCCC1"
quantity_name = "BINDING IL4 % Neutra at 100 μM"
unit_spec = "%"
measured_result = 96.4

[[record]]
compound = "CN(CCN(Cc1ccncc1)Cc1cn(S(=O)(=O)c2ccccc2)c2ccccc12)C1CCCCC1"
quantity_name = "BINDING IL4 % Neutra at 100 μM"
unit_spec = "%"
measured_result = 96.6

[[record]]
compound = "O=S(=O)(c1ccccc1)n1cc(CN(CCNC2CCCCC2)Cc2ccncc2)c2ccccc21"
quantity_name = "BINDING IL4 % Neutra at 100 μM"
unit_spec = "%"
measured_result = 95.5

[[record]]
compound = "CCN(CCOCCN(Cc1cccnc1F)Cc1cn(S(=O)(=O)c2ccccc2)c2ccccc12)C1CCCCC1 [Compound 93]"
quantity_name = "BINDING IL4 % Neutra at 100 μM"
unit_spec = "%"
measured_result = 89.8

[[record]]
compound = "O=S(=O)(c1ccccc1)n1cc(CN(CCCCNC2CCCCCC2)Cc2cccnc2F)c2ccccc21"
quantity_name = "BINDING IL4 % Neutra at 100 μM"
unit_spec = "%"
measured_result = 91.0


I: CN(CCCCN(Cc1ccncc1)Cc1cn(S(=O)(=O)c2ccccc2)c2ccccc12)C1CCCCC1
II: O=C(NCCCCN(Cc1cccnc1F)Cc1cn(S(=O)(=O)c2ccccc2)c2ccccc12)N1CCOCC1
Sorting by BINDING IL4 % Neutra at 100 μM in descending order, would I or II appear first? // output: label of the selected item
I

* * *

experimental.target: UniProt P05112
assay.procedure: Immunoassay binding test, IL-4
stated.conditions: 100 μM
quantity.name: BINDING IL4 % Neutra at 100 μM (%)

Example results:
[[record]]
compound = "CCN(CC)S(=O)(=O)NCCCCN(Cc1cccnc1F)Cc1cn(S(=O)(=O)c2ccccc2)c2ccccc12 [Compound 79]"
measured_result = 31.0

[[record]]
compound = "O=S(=O)(c1ccccc1)n1cc(CN(CCCCCNC2CCCCC2)Cc2cccc(F)n2)c2ccccc21 [Compound 48]"
measured_result = 91.2

[[record]]
compound = "CC(=O)NCCCCN(Cc1cccnc1F)Cc1cn(S(=O)(=O)c2ccccc2)c2ccccc12 [Compound 85]"
measured_result = 36.6

[[record]]
compound = "CN(CCCCN(Cc1cccnc1F)Cc1cn(S(=O)(=O)c2ccccc2)c2ccccc12)C1CCCCCC1 [Compound 74]"
measured_result = 91.9


P: CN(CCCCCN(Cc1ccnc(F)c1)Cc1cn(S(=O)(=O)c2ccccc2)c2ccccc12)C1CCCCC1 [Compound 53]
Q: CN(C)S(=O)(=O)NCCCCN(Cc1cccnc1F)Cc1cn(S(=O)(=O)c2ccccc2)c2ccccc12 [Compound 78]
R: NS(=O)(=O)NCCCCN(Cc1cccnc1F)Cc1cn(S(=O)(=O)c2ccccc2)c2ccccc12 [Compound 77]
Order field: BINDING IL4 % Neutra at 100 μM | Direction: descending (largest first) Reply: labels, ordered per the request.
P, Q, R

P: CCCN(CCOCCN(Cc1cccnc1F)Cc1cn(S(=O)(=O)c2ccccc2)c2ccccc12)C1CCCCC1 [Compound 97]
Q: O=S(=O)(NCCCCN(Cc1cccnc1F)Cc1cn(S(=O)(=O)c2ccccc2)c2ccccc12)N1CCCCCC1 [Compound 81]
Sorting by BINDING IL4 % Neutra at 100 μM in descending order, would P or Q appear first? // output: label of the selected item
P
(P: 94.6%, Q: 39.3%)

Source of measurements: patent US20230416239A1
